All values here come from ChEMBL document CHEMBL1781871.

target: Metabotropic glutamate receptor 5 (Homo sapiens); experiment: Non-competitive antagonist activity at mGluR5
Sequence (P41594 whole entry): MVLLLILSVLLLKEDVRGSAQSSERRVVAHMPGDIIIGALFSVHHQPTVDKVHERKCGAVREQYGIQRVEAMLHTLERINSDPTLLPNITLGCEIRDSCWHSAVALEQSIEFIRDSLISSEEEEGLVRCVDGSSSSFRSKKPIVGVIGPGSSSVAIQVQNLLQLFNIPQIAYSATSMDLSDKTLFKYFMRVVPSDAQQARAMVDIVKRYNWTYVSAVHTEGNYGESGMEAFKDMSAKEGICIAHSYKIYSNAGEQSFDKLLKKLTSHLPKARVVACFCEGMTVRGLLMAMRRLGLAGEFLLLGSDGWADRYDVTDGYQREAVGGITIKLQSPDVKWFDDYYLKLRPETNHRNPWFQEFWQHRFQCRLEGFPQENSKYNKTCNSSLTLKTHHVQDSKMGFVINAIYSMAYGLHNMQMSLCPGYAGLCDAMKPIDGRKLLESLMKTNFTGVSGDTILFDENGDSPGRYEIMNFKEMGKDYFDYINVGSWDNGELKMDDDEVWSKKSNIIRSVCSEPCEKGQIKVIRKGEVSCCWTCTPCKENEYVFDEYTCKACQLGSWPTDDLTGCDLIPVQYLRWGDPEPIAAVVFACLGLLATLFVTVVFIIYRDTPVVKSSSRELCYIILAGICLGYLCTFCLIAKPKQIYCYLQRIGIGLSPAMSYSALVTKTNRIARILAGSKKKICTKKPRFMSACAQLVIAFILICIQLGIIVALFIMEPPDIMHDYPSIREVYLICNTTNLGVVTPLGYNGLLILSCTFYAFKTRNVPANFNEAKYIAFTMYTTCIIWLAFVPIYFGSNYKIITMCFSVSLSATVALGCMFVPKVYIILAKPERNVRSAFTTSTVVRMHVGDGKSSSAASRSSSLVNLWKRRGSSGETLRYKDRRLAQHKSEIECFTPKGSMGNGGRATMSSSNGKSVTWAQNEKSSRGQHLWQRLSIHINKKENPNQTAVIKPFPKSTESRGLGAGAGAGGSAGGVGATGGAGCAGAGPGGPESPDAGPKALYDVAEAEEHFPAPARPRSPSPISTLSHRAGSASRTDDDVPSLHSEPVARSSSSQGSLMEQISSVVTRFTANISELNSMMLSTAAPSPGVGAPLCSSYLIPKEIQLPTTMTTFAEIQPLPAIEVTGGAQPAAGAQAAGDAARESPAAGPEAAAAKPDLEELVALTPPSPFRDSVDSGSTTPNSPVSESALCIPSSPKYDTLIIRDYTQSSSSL
pIC50: −log10 of the molar value.
readout_name: pIC50

Solved entries:
record_smiles	target_entity	pIC50
O=C(C1CCCCC1)N1CCCC2(CCCCC2)C1	Metabotropic glutamate receptor 5 (Homo sapiens)	< 4.52
Cc1cc(C)c2c(N)c(C(=O)c3ccc(F)cc3F)oc2n1	Metabotropic glutamate receptor 5 (Homo sapiens)	5.03

State recorded pIC50 for all listed molecules.
1. O=C(c1ccco1)N1CCCC2(CCCCC2)C1
2. O=C(C1CCCC1)N1CCCC2(CCCCC2)C1
3. Cc1cc(C(F)(F)F)c2c(N)c(C(=O)c3ccc(F)cc3)oc2n1
4. O=C(N1CCN(c2cccnc2)CC1)C12CC3CC(CC(C3)C1)C2
5. O=C(c1cccnc1)N1CCCC2(CCCCC2)C1
6. O=C(N1CCN(c2ccncc2)CC1)C12CC3CC(CC(C3)C1)C2

### Response
1. 5.81
2. < 5.00
3. 6.08
4. < 5.00
5. < 4.52
6. < 4.52
